biological target: nucleolin (NuP), recombinant human (Homo sapiens); assay: SPR; conditions: 1:1 Langmuir fit; 5' CH2CH2-(OCH2CH2)3-O linker as listed in Table S1; 5' amino form also listed, form used in SPR not stated; SPR with recombinant human nucleolin; buffer, salt, pH and temperature not given in the material
readoutName: pKd
Note on pKd: it is the negative log10 of concentration, concentration in mol/L.

q: Tell me the measured pKd of GGTGGTGGTGGTTGTGGTGGTGGTGG [AS1411] , please.
a: 8.42

Attribution: paper PMC11270970
